Tgt: Kallikrein-7 (Homo sapiens, UniProt P49862)
Sequence (P49862 30-253 limits assumed): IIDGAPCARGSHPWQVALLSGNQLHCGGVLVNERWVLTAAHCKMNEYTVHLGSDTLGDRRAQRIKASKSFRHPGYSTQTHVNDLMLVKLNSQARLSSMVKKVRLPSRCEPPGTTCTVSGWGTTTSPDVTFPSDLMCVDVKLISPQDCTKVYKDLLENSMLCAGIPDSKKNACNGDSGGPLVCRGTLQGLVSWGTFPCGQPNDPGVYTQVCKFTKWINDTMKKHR
Assay Comment: Inhibition of kallikrein 7 (unknown origin) using fluorescently labeled peptide substrate by fluorescence assay
Calls of active or inactive are those of the source. No cut-off for these calls is given here. Square brackets hold non-standard residues; d marks the D form. Peptide text beside a SMILES is read from it. * marks the point of attachment. X2 = CC[C@H](C)[C@@H](OC(=O)CCc1ccccc1)C(=O)*; Hmp(2R,3S) = CC[C@H](C)[C@@H](O)C(=O)O; dNMeF = CN[C@H](Cc1ccccc1)C(=O)O; NMeL = CN[C@@H](CC(C)C)C(=O)O
Attribute Measured: inhibition

CC[C@H](C)[C@@H](OC(=O)CCc1ccccc1)C(=O)N1CCC[C@H]1C(=O)NCC(=O)N(C)[C@@H](CC(C)C)C(=O)N[C@@H](C)C(=O)N(C)[C@H](Cc1ccccc1)C(=O)N1CCC[C@H]1C(=O)OC (X2-PG[NMeL]A[dNMeF]P-OMe)    Active
CC[C@H](C)[C@@H](O)C(=O)N1CCC[C@H]1C(=O)NCC(=O)N(C)[C@@H](CC(C)C)C(=O)N[C@@H](C)C(=O)N(C)[C@H](Cc1ccccc1)C(=O)N1CCC[C@H]1C(=O)OC ({Hmp(2R,3S)}-PG[NMeL]A[dNMeF]P-OMe)    Active

Taken from ChEMBL document CHEMBL4138319.
